This section presents binders with their documented EC50 values.
# Assay System: T1, recombinant human PD-1-his protein (human, UniProt Q15116 25-167)
# T1 construct: also called hPD-1-his; not shown: his tag
# T1 sequence (Q15116 25-167 limits assumed): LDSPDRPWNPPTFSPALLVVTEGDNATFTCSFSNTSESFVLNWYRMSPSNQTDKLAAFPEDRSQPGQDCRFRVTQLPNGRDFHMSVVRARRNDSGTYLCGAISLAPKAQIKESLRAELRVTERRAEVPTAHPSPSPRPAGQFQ
# Measurement Protocol: ELISA (first round of humanization); PD-1-his coated 2 µg/mL, anti-human IgG Fc-HRP
Outcome Measure: EC50 (µg/mL)

1) MHPD1-A-H8 Fc (Fc fusion, not shown: a dimerising Fc or GST; small tags and cut ends, First round of humanization of MHPD1-A; also called humanized nanobody-Fc fusion protein) VHH: QVQLVESGGGSVQVGGSLTLSCAASGSDPSIYAMGWFRQAPGKGLEFVAGIGWSAATTYYADSVKGRFGISRDNTKNTVALLMNSLKPEDTAIYYCAADLDHSGFDYWGQGTQVTVSS; 0.2
2) MHPD1-A-H5 Fc (Fc fusion, not shown: a dimerising Fc or GST; small tags and cut ends, First round of humanization of MHPD1-A; also called humanized nanobody-Fc fusion protein) VHH: QVQLVESGGGSVQVGGSLTLSCAASGSDPSIYAMGWFRQAPGKEHEFVAGIGWSAATTYYADSVKGRFGISRDNTKNTVYLQMNSLKPEDTAIYYCAADLDHSGFDYWGQGTQVTVSS; 0.35
3) MHPD1-A-H7 Fc (Fc fusion, not shown: a dimerising Fc or GST; small tags and cut ends, First round of humanization of MHPD1-A; also called humanized nanobody-Fc fusion protein) VHH: QVQLVESGGGSVQVGGSLTLSCAASGSDPSIYAMMWFRQAPGKEHEFVAGIGWSAATTYYADSVKGRFGISRDNSKNTVALLMNSLKPEDTAIYYCAADLDHSGFDYWGQGTQVTVSS; 2.54
